Overview of reported growth across a group of molecules:
Test system: A498 renal
Test: NCI-60 one-dose screen, 48 h (100 = growth as untreated, 0 = no growth, -100 = all killed)
Settings: 10 µM unless noted
Description: Growth inhibition of the A498 human tumor cell line is measured as a screen for anti-cancer activity. Cells are grown in 96 well plates and exposed to the test compound for 48 hours. Compounds are tested at a single concentration, which is 10^-5 M for most compounds. The reported endpoint is percent growth (GI% or GIPRCNT), where numbers from 0 - 100% represent growth inhibition, and numbers from -100% - 0 represent cell death. For example, a value of 40 represents 60% growth inhibition. […]
The panel holds about 83,000 compounds, 20% with a hit somewhere; the sample as a whole holds those more often. The source made the active and inactive calls. Rule for the calls: active = growth percent below 10; inactive = the rest.

Some molecules with recorded growth:
MOLECULE	RESULT
O=C(NNc1nccc(Nc2ccc(S(=O)(=O)Nc3ccncc3)cc2)n1)c1ccccc1	103% (inactive)
CCOC(=O)c1cc(-c2ccc([N+](=O)[O-])cc2)n(-c2ccc(C(=O)O)c(O)c2)c1C	76.4% (inactive)
Nc1c(C(=O)Nc2ccncc2)sc2nc3c(cc12)CCCCCC3	54.8% (inactive)
O=C(CSc1nc2ccc([N+](=O)[O-])cc2[nH]1)Nc1ccc(F)cc1	29.5% (inactive)
CCOC(=O)c1cc(C(=O)c2cc(OC)c(OC)c(OC)c2)n2ccc(-c3ccncc3)cc12	85.6% (inactive)
COC(=O)c1cc(-c2ccccc2)[nH]c1N/N=C/c1c(Cl)cccc1Cl	-45.8% (active)

## Input # value lookup — system A498 renal, readout growth, item `COc1ccc2c(c1)c(-c1noc(C(=O)c3cn(C)c4ccc(Br)cc34)n1)cn2C`
## Output 121% (inactive)

## Input # value lookup — system A498 renal, readout growth, item CC[C@@H](C(=O)[C@@H](C)[C@@H](O)[C@H](C)[C@@H]1O[C@@H]([C@@H](CC)C(=O)NCCc2ccc(F)cc2)CC[C@@H]1C)C1O[C@]2(C=CC(=O)[C@]3(CC[C@@](C)([C@H]4CC[C@](O)(CC)[C@H](C)O4)O3)O2)[C@H](C)C[C@@H]1C (some centres not stated)
## Output 34.6% (inactive)

## Input # value lookup — system A498 renal, readout growth, item `C=C1C(=O)O[C@H]2[C@H]1CC/C(COC(=O)N[C@H]1C[C@H](O[C@H]3C[C@](O)(C(=O)CO)Cc4c(O)c5c(c(O)c43)C(=O)c3c(OC)cccc3C5=O)O[C@@H](C)[C@H]1O)=C\CC[C@@]1(C)O[C@@H]21`
## Output 70.5% (inactive)

## Input # value lookup — system A498 renal, readout growth, item `N#C/C(=C\c1ccc(-c2ccc(Cl)cc2)o1)C(=O)Nc1ncc(Cc2ccc(Cl)cc2)s1`
## Output 69.9% (inactive)

## Input # value lookup — system A498 renal, readout growth, item `S=C(Nc1ccc(-c2nc(N3CCOCC3)c3cccn3n2)cc1)Nc1cccnc1`
## Output -13.3% (active)

* * *

system: OVCAR-5 ovarian; experiment: NCI-60 one-dose screen, 48 h (100 = growth as untreated, 0 = no growth, -100 = all killed); conditions: 10 µM unless noted
Compounds without any hit were thinned out: in the full panel of roughly 83,000, 20% have a hit.
Ranges used to classify growth: label 0: < 60%; label 1: ≥ 60% and < 90%; label 2: ≥ 90%

COMPOUND	TARGET UNDER TEST	CATEGORY
CC1(C)CC[C@]2(C(=O)O)CC[C@]3(C)C(=CC[C@@H]4[C@@]5(C)C/C(=C/O)C(=O)C(C)(C)[C@@H]5CC[C@]43C)[C@@H]2C1	OVCAR-5 ovarian	label 1
CCCCCCCCn1ccc2cc(NC(=O)CN3CCN(c4nc(C)cc(Cl)n4)CC3)ccc21	OVCAR-5 ovarian	label 2
Oc1ccc(CCn2c(O)c(/C=C3\CN=c4ccccc4=N3)sc2=S)cc1	OVCAR-5 ovarian	label 2
CC(=O)Cc1nsc(NC(=O)c2cc(-c3cc(Cl)cc(Cl)c3)oc2C)n1	OVCAR-5 ovarian	label 2
COc1cccc(/C=C/C(=O)c2cc3c(N)c(C(=O)Nc4ccccc4)sc3nc2C)c1	OVCAR-5 ovarian	label 0
O=C(O)c1[nH]c(=O)[nH]c(=O)c1[N+](=O)[O-]	OVCAR-5 ovarian	label 2
Cn1ccc2c3c(ccc21)CC3=O	OVCAR-5 ovarian	label 2
CCCCCCNC(=O)Oc1ccc(/C(=C(/C)Cc2ccc(OC)cc2)c2ccc(OCCCN(C)C)cc2)cc1	OVCAR-5 ovarian	label 1
CCN1C(=O)N(CC)C2C1NN=c1s/c(=C\c3cccc([N+](=O)[O-])c3)c(=O)n12 (centres undefined)	OVCAR-5 ovarian	label 0
Cn1c(O)c(C=NCCN=Cc2c(O)n(C)c(=O)n(C)c2=O)c(=O)n(C)c1=O	OVCAR-5 ovarian	label 1

## Input // return the class label for `CN1CCN(c2ccc(C(=O)Nc3cccc(C#Cc4cccc5[nH]nc(N)c45)c3)cc2C(F)(F)F)CC1`
## Output label 0

## Input // return the class label for `O=C(OCc1ccc2cccc(O)c2n1)N1CCN(C(=O)c2cc3cc(F)ccc3[nH]2)CC1`
## Output label 0

## Input // return the class label for `Cc1ccc(Cc2cnc(NC(=O)c3cc(Br)cs3)s2)cc1`
## Output label 2

## Input // return the class label for `N#C/C(=C\c1ccc(Br)cc1)n1nnc2ccc(F)cc21`
## Output label 0

## Input // return the class label for `C/C(=N\NC(=O)c1ccccc1O)c1cccc(/C(C)=N/NC(=O)c2ccccc2O)n1`
## Output label 1

## Input // return the class label for `COc1ccc(OC)c(-c2c(C#N)c(-c3cccs3)nc3c2c(-c2ccccc2)nn3-c2ccccc2)c1`
## Output label 2

## Input // return the class label for `C=C1C(=O)O[C@H]2[C@H]1CC/C(COC(=O)CCSCCC(=O)OC/C1=C/CC[C@@]3(C)O[C@H]3[C@H]3OC(=O)C(=C)[C@@H]3CC1)=C\CC[C@@]1(C)O[C@@H]21`
## Output label 0

* * *

Test system: HCC-2998 colon
Experiment: NCI-60 one-dose screen, 48 h (100 = growth as untreated, 0 = no growth, -100 = all killed)
Details: 10 µM unless noted
Method: Growth inhibition of the HCC-2998 human tumor cell line is measured as a screen for anti-cancer activity. Cells are grown in 96 well plates and exposed to the test compound for 48 hours. Compounds are tested at a single concentration, which is 10^-5 M for most compounds. The reported endpoint is percent growth (GI% or GIPRCNT), where numbers from 0 - 100% represent growth inhibition, and numbers from -100% - 0 represent cell death. For example, a value of 40 represents 60% growth inhibition. […]
About 83,000 compounds went through this panel and 20% of them were active in at least one assay; those are over-represented in the sample as a whole.
Overview of reported growth across a group of compounds:
Give a bare numeral; the unit % is implied.

COMPOUND	READOUT LABEL	NUMERIC RESULT
CCCCCC(=O)OCC(=O)O[C@@H]1C[C@]2(C(C)C)O[C@@]1(C)[C@@H]1CC[C@@H](C)[C@H]1[C@@H]2OC(=O)/C=C/c1ccccc1	growth	88.5
N=C(N)c1ccc(-c2ccc(-c3ccc(F)cc3)o2)o1	growth	18.4
O=C(c1ccccc1)C1C(=O)N2C(=S)N(c3ccccc3)C(=O)C2C1c1ccc(Cl)cc1 (centres undefined)	growth	94.8

## Input # value lookup — system HCC-2998 colon, readout growth, item `CCN1CCN(Cc2cn(CC(=O)Nc3ccc4c(ccn4Cc4ccccc4)c3)nn2)CC1`
## Output 110

## Input # value lookup — system HCC-2998 colon, readout growth, item `Oc1c(Cl)cc(Cl)c2ccc(Cn3cc(-c4cc(F)cc(F)c4)nn3)nc12`
## Output 103

## Input # value lookup — system HCC-2998 colon, readout growth, item CC(C)N1CN2C(=S)NC3C2N(C1)C(=S)N3C (centres undefined)
## Output 113

## Input # value lookup — system HCC-2998 colon, readout growth, item `CN(C)C1CCN(Cc2ccc(NC(=O)c3cncc(C#Cc4cnc(N)c5ncccc45)c3)cc2C(F)(F)F)CC1`
## Output 99.6

## Input # value lookup — system HCC-2998 colon, readout growth, item O=C(CCCCC1CCSS1)Nc1ncnc2n[nH]c(-c3ccc(Oc4ccccc4)cc3)c12 (centres undefined)
## Output 103

## Input # value lookup — system HCC-2998 colon, readout growth, item `O=C(CCCCCCN1CC(=O)N2[C@H](c3cc(Br)cs3)c3[nH]c4ccccc4c3C[C@H]2C1=O)NO`
## Output 75.1

* * *

Overview of reported growth across a group of compounds:
test system: BT-549 breast; test: NCI-60 one-dose screen, 48 h (100 = growth as untreated, 0 = no growth, -100 = all killed); conditions: 10 µM unless noted
Compounds without any hit were thinned out: in the full panel of roughly 83,000, 20% have a hit.
Give a bare numeral; the unit % is implied.

Some compounds with recorded growth:
COMPOUND	growth [%]
O=[N+]([O-])c1ccc(N/N=C(/C(=N/Nc2ccc([N+](=O)[O-])cc2)c2ccccc2)c2ccccc2)cc1	102
O=c1c2cc(-c3ccccc3)sc2nc2sc(-c3ccccc3)nn12	118
Oc1c(Cl)cc(Cl)cc1/C=N/Nc1nnc(N/N=C/c2cc(Cl)cc(Cl)c2O)c2ccccc12	15.7

## Input // growth lookup, key: COc1cc2c(c(OC)c1OC)C(=O)CC(c1cccc(NC(=O)c3ccc(Br)cc3)c1)O2 (stereo not given)
## Output 15.7

## Input // growth lookup, key: CCCC(O)Cn1ncc(C(=O)OCC)c1NC(=O)NCc1ccccc1F (stereo not given)
## Output 90.2

# credit: PubChem BioAssay (NCI)
